study.target: T1, MutS (Escherichia coli, UniProt P23909 1-853)
T1 sequence: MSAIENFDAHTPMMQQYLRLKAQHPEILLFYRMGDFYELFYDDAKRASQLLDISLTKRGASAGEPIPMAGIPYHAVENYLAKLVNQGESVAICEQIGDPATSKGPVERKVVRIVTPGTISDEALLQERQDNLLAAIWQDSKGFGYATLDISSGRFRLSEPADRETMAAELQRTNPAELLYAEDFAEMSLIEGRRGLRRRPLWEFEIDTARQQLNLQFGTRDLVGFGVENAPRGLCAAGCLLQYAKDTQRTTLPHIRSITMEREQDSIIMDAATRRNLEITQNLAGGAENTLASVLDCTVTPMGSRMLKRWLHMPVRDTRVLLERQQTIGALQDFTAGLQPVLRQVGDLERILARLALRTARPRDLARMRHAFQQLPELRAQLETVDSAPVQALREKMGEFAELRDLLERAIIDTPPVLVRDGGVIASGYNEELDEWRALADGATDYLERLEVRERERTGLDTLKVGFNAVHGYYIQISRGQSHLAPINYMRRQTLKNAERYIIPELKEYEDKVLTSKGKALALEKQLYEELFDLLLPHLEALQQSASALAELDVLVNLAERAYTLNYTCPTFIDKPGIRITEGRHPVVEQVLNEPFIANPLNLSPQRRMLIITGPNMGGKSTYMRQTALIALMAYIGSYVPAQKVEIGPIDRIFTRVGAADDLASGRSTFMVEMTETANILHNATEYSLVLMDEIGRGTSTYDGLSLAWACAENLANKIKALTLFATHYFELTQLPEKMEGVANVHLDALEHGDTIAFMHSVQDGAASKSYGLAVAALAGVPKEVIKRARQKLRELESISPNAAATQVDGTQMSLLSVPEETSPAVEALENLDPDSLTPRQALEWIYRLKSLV
assay.method.text: FRET equilibrium titration
readout.label: pKd
Worth noting: pKd values are minus log10 of concentrations stated in mol/L.

Problem: Using known records, supply pKd for 30-GT (dsDNA) DNA 1: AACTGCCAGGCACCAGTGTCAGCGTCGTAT DNA 2: ATACGACGCTGACACTGGTGCTTGGCAGTT
Solution: 7.16
